Values were extracted from PubChem BioAssay.

- Method Notes: RPMI8226 myeloma cell viability, profiling panel, resazurin fluorescence, basal, 24 h, PK04 Diversity Set (AID 1180);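 further: RPMI8826 multiple myeloma cell line at 5000 cells per well; test concentration not given here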
- Conditions Used: higher = more signal
Entries and their z-score values follow.
Write the number on its own, no unit after it.

C=C(CCCC)C(=O)CC[C@H](OC(=O)c1cccnc1)c1ccccc1OCCO    -2.29
CC(=O)n1cc(C(O)C2C=CC3C(=O)N(C)C(=O)C3N2Nc2ccccc2)c2ccccc21 (stereo not drawn)    -1.11

Now look at this entry.
Return the recorded z-score value; entry: `C=C(COC)/C(=C/C[C@H](OC(=O)c1ccncc1)c1ccc(OCCO)cc1)c1cnc2ccccc2c1`
-0.342

* * *

- Method Notes: E. coli growth modulation, two-sided OD650, primary screen, E. coli filamentation project, strain DRC41, 24 h (AID 1093);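 further: MC1000 strain lacking acrAB efflux and sulA so SOS filamentation is blocked; test concentration not given here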
- Conditions Used: OD650, 24 h, higher = more signal, called active from +8 up or from −8 down
Entries are grouped by z-score into these classes: interval 1: < -0.6; interval 2: ≥ -0.6 and < 0.6; interval 3: ≥ 0.6

O=C1OCC=C[C@H]2OC34C=CCN(CCN5CCOCC5)C(=O)[C@H]3N(CCCO)C(=O)[C@@H]4[C@@H]12 (some centres not stated)    interval 3
O=C1OCCC/C=C\[C@H]2OC34C=CCN(CCN5CCOCC5)C(=O)[C@H]3N(CCCO)C(=O)[C@@H]4C12 (some centres not stated)    interval 2
C=C(COC)/C(=C/C[C@@H](OC(C)=O)c1ccc(OCCO)cc1)c1cc(C(=O)OC)ccc1OC    interval 2
COc1ccc(C#Cc2ccc3c(c2)[C@]2(C(=O)N3)[C@H](c3ccccc3OCCO)N3[C@H](c4ccccc4)[C@H](c4ccccc4)OC(=O)[C@H]3[C@@H]2C(=O)O)cc1    interval 2
CN(C)C(=O)[C@@]1(Cc2ccccc2)N=C(c2ccc(OCCCO)cc2)O[C@H]1c1ccccc1N=[N+]=[N-]    interval 3

Could you place `CCOC(=O)C[C@H]1[C@H](OC(=O)c2ccc(C(=O)c3ccccc3)cc2)[C@@H](NC(=O)c2ccc(-c3ccccc3)cc2)c2cc(OCCCO)ccc2N1C(=O)c1ccccc1` in its proper category? Many thanks.
interval 1

Please indicate the class for `C#CCN(CC=C(C)C)[C@H](CO)c1ccccc1` based on its z-score.
interval 2

Lab note: which band did `Cc1ccc(S[C@]2(C(=O)NCCN3CCOCC3)CC(=O)N(Cc3ccccc3)[C@@H]2c2ccc(CO)cc2I)cc1` land in?
interval 1

Place this compound in its band: C#CCN(Cc1ccccc1Br)C(/C=C/c1ccccc1)CO (configuration not stated)
interval 2

Exam item: assign `COc1ccc(C(=O)Nc2ccc(CN3C(=O)[C@@]4(O[C@@H](CC(=O)N5CCC[C@H]5CO)[C@H]([Si](C)(C)c5ccc(OC)cc5)[C@H]4C)c4ccccc43)cc2)cc1` to the correct category.
interval 3

# classify by z-score band: `C[C@@]1([C@@H](NC(=O)c2ccccc2)c2ccc(-c3ccccc3)cc2)C[C@H]1C1CCCCC1`
interval 1

# classify by z-score band: CN1C(=O)C2C=CC(C(O)C3CCCCC3)N(Nc3ccc([N+](=O)[O-])cc3[N+](=O)[O-])C2C1=O (configuration not stated)
interval 1

* * *

- Tested on: wheat germ agglutinin (Triticum aestivum), Alexa647-labelled
- Method Notes: wheat germ agglutinin binders on compound microarrays, profiling panel, artefact control for SMM control-protein annotation, biochemical, small-molecule microarray, 635/667 nm fluorescence (AID 1140);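 further: score merges 667 nm feature emission with signal to noise over triplicate slides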
- Conditions Used: WGA-A647 binding, 635 nm fluorescence, higher = more signal
param class (str): category from composite z-score; see ranges band A = under 0.6, band B = from 0.6 up to 0.8, band C = 0.8 and over

COCCOC(=O)N1C(=O)[C@@]2(c3cc(C#CC4=CCCCC4)ccc31)[C@H](C(=O)Nc1nc3ccccc3s1)[C@H]1C(=O)O[C@H](c3ccccc3)[C@H](c3ccccc3)N1[C@@H]2c1ccc(OCCO)cc1    band A
COc1ccc(COC2OC[C@]3(C)[C@H]4C5=C(CN3C(=O)OC(C)(C)C)[C@H](C)C(CO)C(CO)C5CC[C@@H]24)cc1 (stereo not given in full)    band C
C=CCOC(=O)[C@@H]1[C@H]2C(=O)O[C@H](c3ccccc3)[C@H](c3ccccc3)N2[C@H](c2ccc(OCCOC(=O)[C@@H]3C[C@@H]4C(=O)N5CCC[C@H]5C(=O)N4[C@@H]3c3ccc(O)cc3)cc2)[C@@]12C(=O)Nc1ccc(I)cc12    band B

Determine which band this molecule sits in: `Cc1ccc(S[C@]2(C(=O)NCCN3CCOCC3)CC(=O)N(Cc3ccccc3Cl)[C@@H]2c2ccc(CO)cc2)cc1`
band A

Kindly identify the class of CN1C(=O)C2C=CC(C(O)c3ccc(-c4ccccc4)s3)N(N(c3ccccc3)c3ccccc3)C2C1=O (stereo not given) .
band C

Could you place `COCCOC(=O)N1C(=O)[C@@]2(c3cc(C#CC4=CCCCC4)ccc31)[C@H](C(=O)N1CCc3cc(OC)c(OC)cc3C1)[C@H]1C(=O)O[C@H](c3ccccc3)[C@H](c3ccccc3)N1[C@@H]2c1ccc(OCCO)cc1` in its proper category? Many thanks.
band A

* * *

Recorded z-score values for a group of compounds are listed next.
- Target System: NADPH oxidase 4 (Homo sapiens)
- Method Notes: NOX4-dependent H2O2 signal modulators, primary screen, NOX inhibitor project, cell-based, HEK293-NOX4, tetracycline-induced, Amplex Red fluorescence (AID 1160)
- Conditions Used: 45 min, higher = more signal, called active from +8 up or from −8 down
I'd appreciate a reply containing only the number, no unit.

Guide cases for z-score, answers given:
O=C(c1ccccc1)N1Cc2ccccc2[C@@H]2OC(c3ccc(OCCCO)cc3)=N[C@]2(Cc2ccccc2)C1=O    0.418
NCCCCCNC(=O)[C@@H]1C[C@@H]2C(=O)NCC(=O)N2[C@@H]1c1ccc(O)cc1    -0.0757
C=CCOC(=O)[C@@H]1[C@H]2C(=O)O[C@H](c3ccccc3)[C@H](c3ccccc3)N2[C@H](c2ccc(OCCOC(=O)[C@@H]3C[C@@H]4C(=O)N[C@@H](CCCCN(C)C)C(=O)N4[C@@H]3c3ccc(O)cc3)cc2)[C@@]12C(=O)Nc1ccc(I)cc12    0.636

Now turn to the next compound.
Write z-score of CCCCCN1CC=CC23O[C@@H]4/C=C\CCCOC(=O)C4[C@H]2C(=O)N(C(CO)C(C)C)[C@@H]3C1=O (some centres undefined) ; system used: NADPH oxidase 4 (Homo sapiens)
0.481

* * *

- Method Notes: E. coli acrAB mutant growth effects, primary screen, E. coli filamentation inducers, strain DRC39, OD650, 24 h (AID 1178);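 further: growth measured as culture turbidity by optical density at 650 nm; test concentration not given here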
- Conditions Used: higher = more signal, called active from +8 up or from −8 down
The threshold is inclusive: z-score of exactly -0.7 counts as met; values below receive not met.

Sample answers from the record:
CC1CC/C=C\[C@H]2OC34C=CCN(Cn5nnc6ccccc65)C(=O)[C@H]3N(C(CO)C(C)C)C(=O)[C@@H]4C2C(=O)O1 (stereo partly specified)    met
C#CCN(CC=C(C)C)[C@H](CO)c1ccccc1    not met
NC(=O)[C@@H]1[C@H]2C(=O)O[C@H](c3ccccc3)[C@H](c3ccccc3)N2[C@H](c2ccc(O)cc2)[C@@]12C(=O)Nc1ccc(C#CC3(O)CCCCCC3)cc12    not met
CCOc1cc(C(O)C2C=CC3C(=O)N(c4ccccc4)C(=O)C3N2Nc2ccccc2)ccc1O (stereo unspecified)    met
COCCOC(=O)N1C(=O)[C@@]2(c3cc(C#CCCO)ccc31)[C@H](C(=O)N1CCN(c3ncccn3)CC1)[C@H]1C(=O)O[C@H](c3ccccc3)[C@H](c3ccccc3)N1[C@@H]2c1ccccc1OCCO    met
C=CCOC(=O)[C@H]1[C@@H]2C(=O)O[C@@H](c3ccccc3)[C@@H](c3ccccc3)N2[C@@H](c2ccc(OCCOC(=O)[C@H]3C[C@H]4C(=O)N5CCC[C@H]5C(=O)N4[C@H]3c3ccc(O)cc3)cc2)[C@]12C(=O)Nc1ccc(I)cc12    met
O=C1O[C@@H](c2ccccc2)[C@@H](c2ccccc2)N2[C@@H](c3ccc(OCCO)cc3)[C@]3(C(=O)Nc4ccccc43)[C@@H](C(=O)NC[C@H](O)c3ccccc3)[C@H]12    met
CCCCCCC#C[Si](O[C@H](c1ccccc1)c1cn([C@H](CO)Cc2ccccc2)nn1)(C(C)C)C(C)C    met
O=C(NCc1ccccc1)[C@@]1(CCS(=O)(=O)c2ccccc2)N=C(c2ccc(OCCCO)cc2)O[C@H]1c1ccccc1    met
CN1C(=O)C2C=CC(C(O)C3CC=CCC3)N(NC(=O)OC(C)(C)C)C2C1=O (stereo unspecified)    not met

Consider the record given below.
Item `COc1ccc(CCN2C(=O)[C@@]3(c4ccc([N+](=O)[O-])cc4)CC(=O)N(C4CCCCC4)[C@@H]3c3ccc(CO)cc32)cc1` with z-score of -0.7 or above?
met
